These measurements were taken from patent US11180481B2.

target: N-terminal His6-tagged Mdm225-117 (Homo sapiens, UniProt Q00987); construct: 25-117 fusion protein; made in house; host or cells: E. coli BL21 DE3 pLySS, pET-14B vector; experiment: Fluorescence polarization competitive binding assay with fluorescein labeled p53 peptide (Flu-p53); conditions: read-out: dissociation constant, Kd
readout_kind: pKd
Scale: pKd equals -log10([C]), with [C] in mol/L.

Query: Please report the recorded pKd for CC(C)C[C@@H](C(=O)O)N1CCN(C(=O)[C@H](Cc2c[nH]c3ccccc23)N2CCN[C@@H](Cc3ccccc3)C2=O)[C@@H](C)C1=O .
Reply: 4.19

* * *

biological target: N-terminal His6-tagged Mdm225-117 (Homo sapiens); construct: 25-117 fusion protein; made in house; host or cells: E. coli BL21 DE3 pLySS, pET-14B vector; experiment: Fluorescence polarization competitive binding assay with fluorescein labeled p53 peptide (Flu-p53)
readout_kind: binding to Mdm2, in words

* CC(C)C[C@@H](C(N)=O)N1CCN(C(=O)[C@H](Cc2c[nH]c3ccccc23)N2CCN[C@@H](Cc3cccc(Cl)c3)C2=O)[C@@H](Cc2ccccc2)C1=O | slightly better than 16
* COc1ccc(C[C@@H]2NCCN([C@@H](Cc3c[nH]c4ccccc34)C(=O)N3CCN([C@@H](CC(C)C)C(N)=O)C(=O)[C@@H]3Cc3ccccc3)C2=O)cc1 | slightly better than 16
